Target: GDP-bound protein (aa 1-169), containing both G12C and C118A amino acid substitutions (Homo sapiens, UniProt P01116, C118A/G12C)
Sequence (P01116 1-169 isoform P01116-2 G12C/C118A): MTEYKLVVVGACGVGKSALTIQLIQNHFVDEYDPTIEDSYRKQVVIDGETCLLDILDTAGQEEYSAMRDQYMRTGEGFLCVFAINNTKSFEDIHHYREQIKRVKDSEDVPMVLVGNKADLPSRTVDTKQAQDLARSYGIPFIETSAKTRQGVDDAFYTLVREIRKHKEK
Experiment: Coupled Nucleotide Exchange Assay (SOS-mediated nucleotide exchange, AlphaScreen)
Assay type: biochemical
Details: 2 hours compound pre-incubation
Method: Coupled Nucleotide Exchange Assay: Purified GDP-bound […] protein (aa 1-169), containing both G12C and C118A amino acid substitutions and an N-terminal His-tag, was pre-incubated with a compound dose-response titration for 2 hours in assay buffer (25 mM HEPES pH 7.4, 10 mM MgCl2, and 0.01% Triton X-100). […] The assay plates were then read on a PerkinElmer EnVision Multilabel Reader, using AlphaScreen® technology, and data were analyzed using a 4-parameter logistic model to calculate IC50 values.
observation.type: Coupled exchange IC50 (µM)

Answered examples (5):
| compound | unit.symbol | Coupled exchange IC50 |
| --- | --- | --- |
| C=CC(=O)N1CCN(c2nnc(Cc3ccc(F)cc3)c3cc(-c4c(O)cccc4F)c(Cl)cc23)CC1 | µM | 3.76 |
| C=C(CO)C(=O)N1CCN(c2snc3c(F)c(-c4cc(O)cc5ccccc45)c(Cl)cc23)CC1 | µM | 24.6 |
| C=CC(=O)N1CCN(c2nnc(Cc3ccccc3)c3cc(-c4c(O)cccc4F)c(Cl)cc23)CC1 | µM | 8.01 |
| C=CC(=O)N1CCN(c2snc3c(F)c(-c4cccc5ccncc45)c(Cl)cc23)CC1 | µM | 11.3 |
| C=CC(=O)N1CCN(c2nnc(Nc3ccccc3)c3cc(-c4c(O)cccc4F)c(Cl)cc23)CC1 | µM | 5.20 |

[A] C=CC(=O)N1CCN(c2nnc(C3CCCC3)c3cc(-c4c(O)cccc4F)c(Cl)cc23)CC1
[B] C=CC(=O)N1CCN(c2nnc(-c3ccccc3Cl)c3cc(-c4c(O)cccc4F)c(Cl)cc23)CC1
[C] C=CC(=O)N1CCN(c2snc3c(F)c(-c4cc(O)cc5ccccc45)c(Cl)cc23)CC1C(N)=O (racemic)
**Query** Would you mind ranking these compounds by ascending Coupled exchange IC50? Lab note: final answer is the ordered label list.
**Result** B, A, C

====

target: GDP-bound protein (aa 1-169), containing both G12C and C118A amino acid substitutions (Homo sapiens, UniProt P01116, C118A/G12C); assay: Coupled Nucleotide Exchange Assay (SOS-mediated nucleotide exchange, AlphaScreen); type: biochemical; conditions: 2 hours compound pre-incubation
observation.type: Coupled exchange IC50 (µM)

Previously resolved entries follow.
| compound | unit.symbol | Coupled exchange IC50 |
| --- | --- | --- |
| C=CC(=O)NC1(CO)CN(c2snc3c(F)c(-c4cc(O)cc5ccccc45)c(Cl)cc23)C1 | µM | 14.2 |
| C=CC(=O)N1[C@@H]2CC[C@H]1CN(c1snc3c(F)c(-c4cc(O)cc5ccccc45)c(Cl)cc13)C2 | µM | 63.5 |
| C=CC(=O)N1CCN(c2snc3c(F)c(-c4cc(O)c(Cl)cc4Cl)c(Cl)cc23)CC1 | µM | 5.48 |
| C=CC(=O)N1CCN(c2snc3c(F)c(-c4cc(N)ccc4C)c(Cl)cc23)CC1 | µM | 2.56 |

[a] C=CC(=O)N1CCN(c2nnc(Oc3ccccc3)c3cc(-c4c(O)cccc4F)c(Cl)cc23)CC1
[b] C=CC(=O)N1CCN(c2nc(=O)n(-c3ccccc3C(C)C)c3cc(-c4c(C)ccc5[nH]ncc45)c(Cl)cc23)CC1 (single isomer, unassigned) [Example 11-1-2]
**Query** Among a and b , whose measured Coupled exchange IC50 is the smaller figure? Provide the label of your selected option as the answer.
**Result** b
(b: 0.151 µM, a: 2.93 µM)
